# assayDetails: clinical
# protocolConditions: human, plasma, intravenous, Vss, volume of distribution at steady-state, Group 2 (N = 29), median
recordedMetric: Vd (L)

1) C/C=C1\NC(=O)[C@H]2CSSCC/C=C/[C@H](CC(=O)N[C@H](C(C)C)C(=O)N2)OC(=O)[C@H](C(C)C)NC1=O | 64.9

====

# assayDetails: clinical
# protocolConditions: human, plasma, intravenous, FK228 clearance, Example 1, all 42 patients combined, 4-hour infusion 14 or 18 mg/m^2, mean ± standard deviation
recordedMetric: clearance (mL/min)

1) C/C=C1\NC(=O)[C@H]2CSSCC/C=C/[C@H](CC(=O)N[C@H](C(C)C)C(=O)N2)OC(=O)[C@H](C(C)C)NC1=O | 292
